Source of measurements: PubChem BioAssay AID1745849

PROTOCOL TEXT: Viability Counterscreen for CMV-Luciferase Assay of Inhibitors of ATXN expression; further: nearly all actives have a fitted effect of over 55% in size
APPLIED CONDITIONS: HEK-293 CMV-luciferase cells viability, protease fluorescence, 24 h
Hit rate of the full screen: of about 2,100 compounds, about 320 (15%) were called active. Roughly 52% stayed inconclusive and do not appear here. The call rests on the fitted dose curve; in most records, active means well fitted cell-killing curve with a large enough effect; inconclusive means small, poorly fitted or top-dose-only effect, or effect the other way; inactive means flat fitted curve, though single readings scatter. This is one part of the list.
Bench note: report the call from active, inactive

## Input Could you kindly confirm the outcome this assay logged for `C=CCN(C(=O)CSc1nc2c(sc3ccccc32)c(=O)n1CCN(CC)CC)c1ccccc1` ?
## Output active

## Input Hey, what did the test say about Oc1c(C(Nc2cccc(C(F)(F)F)c2)c2ccncc2)ccc2cccnc12 (stereo not given) ?
## Output active

## Input Answer briefly: the call reported for Cc1ccnc(NC(c2ccccc2)c2ccc3cccnc3c2O)c1 (stereo not given) in this assay.
## Output inactive

## Input // return assay outcome for CC(=O)NC(c1ccco1)c1ccc2cccnc2c1O (stereo not given)
## Output inactive

## Input Please let me know the test result on file for `O=C(O)CSc1cc(NS(=O)(=O)c2cccc([N+](=O)[O-])c2)c2ccccc2c1O` .
## Output inactive

## Input Record request — test call for O=C(C1CCC(CNS(=O)(=O)c2cccc3nsnc23)CC1)N1CC=C(c2ccccc2)CC1 (stereo not given)
## Output inactive

## Input Please let me know the test result on file for `Cc1ccc(S(=O)(=O)c2nc(NCc3ccc4c(c3)OCO4)sc2Cl)cc1` .
## Output inactive

## Input What outcome does the record of this test show for Oc1c(C(Nc2ccccn2)c2cccnc2)cc(Cl)c2cccnc12 (stereo not given) ?
## Output inactive

## Input // return assay outcome for `Cc1nc2ccccc2c(=O)n1/N=C/c1c(O)ccc2oc3c(c12)CCCC3`
## Output inactive

## Input I'd appreciate the recorded outcome for `Cc1nn(-c2ccccc2)c(N2CCCC2)c1/C=N/NC(=O)c1cc2ccccc2cc1O` from this test.
## Output inactive

* * *

PROTOCOL TEXT: Viability Counterscreen for CMV-Luciferase Assay of Inhibitors of ATXN expression; further: nearly all actives have a fitted effect of over 55% in size
APPLIED CONDITIONS: HEK-293 CMV-luciferase cells viability, protease fluorescence, 24 h
Hit rate of the full screen: of about 2,100 compounds, about 320 (15%) were called active. Not shown: some 52% with an inconclusive outcome. Calls follow the shape of the dose curve; as a rule, active = well fitted cell-killing curve with a large enough effect; inconclusive = small, poorly fitted or top-dose-only effect, or effect the other way; inactive = flat fitted curve, though single readings scatter. Some of the results follow.
Allowed answers: label 1 (active), label 0 (inactive)

## Input Per the assay record, what outcome was assigned to CC1CCCCN1S(=O)(=O)c1ccc(C(=O)Nc2nnc(-c3ccccc3Cl)o2)cc1 (configuration not stated) ?
## Output label 0

## Input What did the test return for `Cc1nc2ccc(NC(=O)c3ccc(S(=O)(=O)N(C)c4ccccc4)cc3)cc2s1` ?
## Output label 0

## Input Field: outcome | Entry: CCC(C)n1cnc2c(c1=O)c1nc3ccccc3nc1n2-c1ccc2c(c1)OCCO2 (configuration not stated)
## Output label 0

## Input What classification did `COc1cc2nc(CN(C)Cc3ccc(SC)cc3)[nH]c(=O)c2cc1OC` end up with in this test?
## Output label 0

## Input Identify the outcome logged in this assay for the molecule shown: `O=C(Nc1nc(-c2ccccn2)cs1)c1ccccc1-n1cnnn1`
## Output label 1

## Input Given `O=C(O)COc1ccc2oc3ccccc3c2c1` , state the outcome it received in this test.
## Output label 0

## Input Please state the recorded outcome for this molecule: CC(N)c1csc(NC(=O)c2cc(C(C)(C)C)nn2Cc2ccccc2)n1 (configuration not stated)
## Output label 0

## Input Tell me the assay call for Clc1ccc(COC(Cn2ccnc2)c2ccc(Cl)cc2Cl)c(Cl)c1 (configuration not stated) please.
## Output label 0

## Input Recorded test call requested for c1ccc2c(c1)c1c(c3ccccc32)CN2CCCC2C1 (configuration not stated)
## Output label 0

## Input How did this test come out for `O=[N+]([O-])c1ccc(O)c(/C=N\N=C2c3ccccc3-c3ccccc32)c1` ?
## Output label 1

## Input Record lookup: outcome of this test for `CCc1sc(C(=O)Nc2nc(-c3ccccn3)cs2)cc1C` ?
## Output label 1

## Input Outcome? `Cc1ccc(/C=C2\SC(=S)N(CCCC(=O)Nc3cc(C)on3)C2=O)cc1`
## Output label 0

## Input Recorded test outcome, item `COc1cc(/C=C2\SC(=O)N(CC(=O)Nc3ccccc3F)C2=O)cc(Cl)c1O`
## Output label 0

## Input What is the recorded call for this molecule in the test? `CC(C)(C)c1ccc(OCCCC(=O)NNC(=O)c2ccccc2O)cc1`
## Output label 1

## Input Can you look up the reported call for `CN(CC(=O)Nc1ccc(Cl)c(C(F)(F)F)c1)C(=O)c1cccnc1Sc1ccccc1` for me?
## Output label 0

## Input Give the logged outcome of this assay for the following molecule: `Clc1ccc(SCc2cc(N3CCOCC3)nc(-c3ccccn3)n2)cc1`
## Output label 1

## Input Called result for `Cc1cc(Oc2ccc(Cl)cc2)nc(-c2ccccn2)n1`
## Output label 0

## Input For `C=CCn1cnc2c(c1=O)c1nc3ccccc3nc1n2/N=C/c1cc(OC)c(OC)c(OC)c1` , which call appears in the assay record?
## Output label 1

## Input Which outcome did this test record for the molecule `Cn1c(COc2ccc(Cl)cc2)nnc1SCc1ncc(-c2ccccc2)o1` ?
## Output label 0

## Input What classification did `O=C(Nc1nnc(C2CC2)o1)c1ccc(S(=O)(=O)N2CCCc3ccccc32)cc1` end up with in this test?
## Output label 1

## Input # lookup: test call for CC(=O)N1CCCc2cc(S(=O)(=O)N3CCCC(C(=O)N4CCN(c5cc(C)ccc5C)CC4)C3)ccc21 (configuration not stated)
## Output label 0

## Input Outcome logged for `c1ccc(COc2ncnc3c2ncn3CCCN2CCN(Cc3cccc4ccccc34)CC2)cc1` in this assay:
## Output label 1

## Input Test call, this molecule: `O=C(NNc1nc2ccc(Cl)cc2s1)c1cc(-c2cccs2)nc2ccccc12`
## Output label 0

## Input Tell me the assay call for `O=C(NC(Nc1ncc(S(=O)(=O)c2ccc([N+](=O)[O-])cc2)s1)(C(F)(F)F)C(F)(F)F)c1ccc(Cl)cc1` please.
## Output label 1

## Input Entry `Cn1ncc2c(Nc3cccc(Cl)c3)nc(Nc3cccc(Cl)c3)nc21` : call = ?
## Output label 0

## Input Please indicate how the test categorized `O=C(CCc1ccccc1)NNC(=O)c1cc(Cl)ccc1O` .
## Output label 0

## Input Write down the call the test reported for this molecule. Item: `O=C(Nc1nc(NC(=O)c2ccco2)n(-c2ccccc2)n1)c1ccccc1`
## Output label 1

## Input For `O=C(Nc1ccccc1NC(=O)NC1CCCCC1)NC1CCCCC1` , which call appears in the assay record?
## Output label 1

## Input Each molecule tested received a call. Report the one for `C=CCOC(=O)C1=C[C@@H](c2ccc3c(c2)OCO3)C[C@@H](OCCCCO)O1` .
## Output label 0

## Input State the result this test recorded for O=C(C1CC(=O)N(c2ccc3c(c2)OCCO3)C1)N1CCN(c2ccccc2)CC1 (configuration not stated) .
## Output label 0

## Input Called result for `COc1ccc(/C=C2\SC(=S)N(CCCC(=O)NNC(=O)c3ccccc3O)C2=O)cc1`
## Output label 1

## Input Tell me the assay call for `COc1ccc(N2CCN(c3ccnc4cc(Cl)ccc34)CC2)cc1` please.
## Output label 0

## Input How was `CC(C)Cn1c(/C=N/Nc2nc3ccccc3[nH]2)nc2ccccc21` classified in this test?
## Output label 0

## Input What is the recorded call for this molecule in the test? `O=[N+]([O-])c1c(Nc2ccccn2)cc(Cl)c2nonc12`
## Output label 1

## Input Please let me know the test result on file for `O=S(=O)([N-]c1nc2ccccc2nc1-[n+]1ccc(Cc2ccccc2)cc1)c1ccc(Br)s1` .
## Output label 1

## Input Any idea what this test logged for `COc1ccc(N(CC(=O)N2CCN(c3ccc(Cl)cc3)CC2)S(=O)(=O)c2c(C)n[nH]c2C)cc1` ?
## Output label 0

## Input Tell me the assay call for `COc1ccccc1/C=C1\SC(=S)N(CCC(=O)NC2=NCCS2)C1=O` please.
## Output label 0

## Input Call for entry `Cc1ccc(/C=C2/SC(=S)N(CCCC(=O)Nc3cc([N+](=O)[O-])ccc3O)C2=O)cc1` :
## Output label 1

## Input How was `COc1cccc(/C=C2/SC(=S)N(CCCC(=O)Nc3ccc(O)cc3)C2=O)c1` classified in this test?
## Output label 1

## Input Per the assay record, what outcome was assigned to `CCOc1ccc(S(=O)(=O)NCCC(=O)N2CC=C(c3ccccc3)CC2)cc1` ?
## Output label 0

## Input Name the outcome recorded for `Cc1ccc2c(CC(=O)NNC(=O)c3ccccc3O)coc2c1` in the assay.
## Output label 0

## Input Per the assay record, what outcome was assigned to `Cc1ccc(/C=C2\SC(=S)N(CCCC(=O)Nc3ccc(O)cc3)C2=O)cc1` ?
## Output label 0
